TESTED_TARGET: Gonadotropin-releasing hormone receptor (Rattus norvegicus) (UniProt P30969)
TEST_NAME: Antagonist activity at LH-RH receptor in Sprague-Dawley rat pituitary gland assessed as change in LHRH-stimulated FSH release at 1 ug/ml preincubated for 4 hrs followed by LH-RH addition at 5th and 6th hr 5 mins post compound addition and measured for 6 hrs by RIA
Non-standard residues stand in square brackets, D forms with d. Residues, ends and D or L forms follow the SMILES beside them. pGlu = O=C1CC[C@@H](C(=O)O)N1
// reported Activity for each item listed
Output spec: scalar in ng/mL, unitless text.

MOLECULE	Activity (ng/mL)
CC(C)C[C@H](NC(=O)[C@@H](Cc1ccccc1)NC(=O)[C@H](Cc1ccc(O)cc1)NC(=O)[C@H](CO)NC(=O)CN(C)C(=O)[C@@H](Cc1ccccc1)NC(=O)[C@@H]1CCC(=O)N1)C(=O)N[C@@H](CCCNC(=N)N)C(=O)N1CCC[C@H]1C(=O)NCC(N)=O	3450
CC(C)C[C@H](NC(=O)[C@@H](Cc1ccccc1)NC(=O)[C@H](Cc1ccc(O)cc1)NC(=O)[C@H](CO)NC(=O)[C@@H]1CCCN1C(=O)[C@@H](Cc1ccccc1)NC(=O)[C@@H]1CCC(=O)N1)C(=O)N[C@@H](CCCNC(=N)N)C(=O)N1CCC[C@H]1C(=O)NCC(N)=O ([pGlu][dF]PSY[dF]LRPG-NH2)	280

[Q] Query: Activity; subject: `CSCC[C@H](NC(=O)[C@@H](Cc1ccccc1)NC(=O)[C@@H]1CCC(=O)N1)C(=O)N[C@@H](CO)C(=O)N[C@@H](Cc1ccc(O)cc1)C(=O)N[C@H](Cc1c[nH]c2ccccc12)C(=O)N[C@@H](CC(C)C)C(=O)N[C@@H](CCCNC(=N)N)C(=O)N1CCC[C@H]1C(=O)NCC(N)=O`
[A] -291

----------
TESTED_TARGET: Gonadotropin-releasing hormone receptor (Rattus norvegicus)
Sequence (whole entry): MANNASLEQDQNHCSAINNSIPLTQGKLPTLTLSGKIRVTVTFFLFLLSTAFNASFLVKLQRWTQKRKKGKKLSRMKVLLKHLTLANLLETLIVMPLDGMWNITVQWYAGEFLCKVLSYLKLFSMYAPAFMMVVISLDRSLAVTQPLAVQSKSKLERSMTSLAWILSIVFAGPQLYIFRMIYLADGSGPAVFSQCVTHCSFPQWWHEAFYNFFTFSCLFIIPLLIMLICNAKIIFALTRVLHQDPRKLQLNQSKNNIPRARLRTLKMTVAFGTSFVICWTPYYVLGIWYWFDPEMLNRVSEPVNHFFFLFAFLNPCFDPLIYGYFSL
TEST_NAME: Antagonist activity at LH-RH receptor in Sprague-Dawley rat pituitary gland assessed as change in LHRH-stimulated LH release at 0.1 ug/ml preincubated for 4 hrs followed by LH-RH addition at 5th and 6th hr 5 mins post compound addition and measured for 6 hrs by RIA
Non-standard residues stand in square brackets, D forms with d. Residues, ends and D or L forms follow the SMILES beside them. pGlu = O=C1CC[C@@H](C(=O)O)N1
// reported Activity for each item listed
Output spec: scalar in ng/mL, unitless text.

A selection of reference data follows.
COMPOUND	Activity [ng/mL]
CSCC[C@H](NC(=O)[C@@H](Cc1ccccc1)NC(=O)[C@@H]1CCC(=O)N1)C(=O)N[C@@H](CO)C(=O)N[C@@H](Cc1ccc(O)cc1)C(=O)N[C@H](Cc1c[nH]c2ccccc12)C(=O)N[C@@H](CC(C)C)C(=O)N[C@@H](CCCNC(=N)N)C(=O)N1CCC[C@H]1C(=O)NCC(N)=O	77
CC(C)C[C@H](NC(=O)[C@@H](Cc1ccccc1)NC(=O)[C@H](Cc1ccc(O)cc1)NC(=O)[C@H](CO)NC(=O)[C@@H]1CCCN1C(=O)[C@@H](Cc1ccccc1)NC(=O)[C@@H]1CCC(=O)N1)C(=O)N[C@@H](CCCNC(=N)N)C(=O)N1CCC[C@H]1C(=O)NCC(N)=O ([pGlu][dF]PSY[dF]LRPG-NH2)	46

[Q] What measured Activity is associated with `CC(C)C[C@H](NC(=O)[C@@H](Cc1c[nH]c2ccccc12)NC(=O)[C@H](Cc1ccc(O)cc1)NC(=O)[C@H](CO)NC(=O)[C@@H](Cc1ccccc1)NC(=O)[C@@H](Cc1ccccc1)NC(=O)[C@@H]1CCC(=O)N1)C(=O)N[C@@H](CCCNC(=N)N)C(=O)N1CCC[C@H]1C(=O)NCC(N)=O` on Gonadotropin-releasing hormone receptor (Rattus norvegicus)?
[A] 97

[Q] Subsequent entry: `CC(C)C[C@H](NC(=O)[C@@H](Cc1c[nH]c2ccccc12)NC(=O)[C@H](Cc1ccc(O)cc1)NC(=O)[C@H](CO)NC(=O)[C@@H](NC(=O)[C@@H](Cc1ccccc1)NC(=O)[C@@H]1CCC(=O)N1)C(C)C)C(=O)N[C@@H](CCCNC(=N)N)C(=O)N1CCC[C@H]1C(=O)NCC(N)=O`
[A] 44
